Record form. Attribute: PABF. Fill in for each entry.
assay: Photophysical characterization; type: physicochemical; settings: Table 1b; PA Brightness Factor

Reference set (3 entries):
q: Which PABF is listed for COc1ccc(C2=[N+]3C(=Nc4c(-c5ccccc5)cc(-c5ccc(OC)cc5)n4[B-]3(F)F)C(c3ccccc3)=C2)cc1 [AB-OMe2, reference compound] ?
a: 0.34 ×10^4

q: Which PABF is listed for COc1ccc(-c2cc(-c3ccccc3)c3n2[B-](OC)(OC)[N+]2=C(c4ccc(OCc5cn(C(COC6OC(CO)C(O)C(O)C6O)COC6OC(CO)C(O)C(O)C6O)nn5)cc4)C=C(c4ccccc4)C2=N3)cc1 (stereo not shown) [mvGlu-AB1] ?
a: 1.6 ×10^4

q: Which PABF is listed for CO[B-]1(OC)n2c(-c3ccc(OCc4cn(C(COC5OC(CO)C(O)C(O)C5O)COC5OC(CO)C(O)C(O)C5O)nn4)cc3)cc(-c3ccccc3)c2N=C2C(c3ccccc3)=CC(c3ccc(OCc4cn(C(COC5OC(CO)C(O)C(O)C5O)COC5OC(CO)C(O)C(O)C5O)nn4)cc3)=[N+]21 (stereo not shown) [mvGlu-AB2] ?
a: 2.1 ×10^4

Alright, here's another compound for you.
q: Which PABF is listed for COc1ccc(C2=[N+]3C(=Nc4c(-c5ccc(OCc6cn(C(COC7OC(CO)C(O)C(O)C7O)COC7OC(CO)C(O)C(O)C7O)nn6)cc5)cc(-c5ccc(OC)cc5)n4[B-]3(OC)OC)C(c3ccc(OCc4cn(C(COC5OC(CO)C(O)C(O)C5O)COC5OC(CO)C(O)C(O)C5O)nn4)cc3)=C2)cc1 (stereo not shown) [mvGlu-AB3] ?
a: 1.7 ×10^4

Entry source: patent US20260062441A1
